Target: T1, human amylin receptor (AMY3) on CHO-K1/Ga15/AMY3 cells (human, UniProt P30988 25-474; O60896 24-148)
T1 sequence (looked up) 1: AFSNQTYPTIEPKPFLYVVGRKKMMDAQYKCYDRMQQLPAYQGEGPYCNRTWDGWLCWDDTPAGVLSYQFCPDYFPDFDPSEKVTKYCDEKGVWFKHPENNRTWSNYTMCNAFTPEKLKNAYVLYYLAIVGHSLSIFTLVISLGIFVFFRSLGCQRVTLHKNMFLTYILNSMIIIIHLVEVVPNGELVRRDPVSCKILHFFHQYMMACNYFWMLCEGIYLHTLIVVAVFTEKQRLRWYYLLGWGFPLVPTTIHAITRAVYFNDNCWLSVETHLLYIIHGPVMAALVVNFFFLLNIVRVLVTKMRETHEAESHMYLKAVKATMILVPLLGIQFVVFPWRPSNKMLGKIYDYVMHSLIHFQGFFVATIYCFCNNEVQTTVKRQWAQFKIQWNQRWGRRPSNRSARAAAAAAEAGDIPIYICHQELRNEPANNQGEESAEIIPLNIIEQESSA
T1 sequence (looked up) 2: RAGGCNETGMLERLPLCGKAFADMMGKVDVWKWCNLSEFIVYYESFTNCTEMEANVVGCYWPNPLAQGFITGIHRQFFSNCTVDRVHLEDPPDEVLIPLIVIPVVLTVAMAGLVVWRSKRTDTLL
Experiment: cell-based or functional assay
*1 amine or outer side, *2 acyl side, *3 side chain or, on linkers, in order; H or OH if unused. Bridges are numbered along the chain shown (N, C = ends). Primed or numbered codes have the meaning given here. Where no end group is shown, it is not given here. Side-chain parts run from the residue outwards. [ ]: non-standard residue; d: D form. The star is where a group is joined. C20 diacid = O=C(O)CCCCCCCCCCCCCCCCCCC(=O)*; C18 diacid = O=C(O)CCCCCCCCCCCCCCCCC(=O)*; γGlu = O=C(O)[C@H](CCC(=O)[*:2])N[*:1]; Hyp = O=C(O)[C@@H]1C[C@@H](O)CN1; Orn = NCCC[C@H](N)C(=O)O; Aze = O=C(O)[C@@H]1CCN1; Dab = NCC[C@H](N)C(=O)O; Inp′ = not defined here; AEEA = NCCOCCOCC(=O)O
value-type: EC50, CRE-luciferase assay (nM)

RCNTATCATQRLADFLRHSK([AEEA-γGlu-C20 diacid])NNLGPILPPTNVGSNT[Hyp]-NH2 (disulfide 2-7 (inferred)) [PD116] : 0.033

a = RCNTATCATQRLADFLRHSSNNLK([AEEA-AEEA-γGlu-C20 diacid])PILPPTNVGSNT[Hyp]-NH2 (disulfide 2-7 (inferred)) [PD081]
b = RCNTATCATQRLADFLRHSSNNLK([γGlu-C20 diacid])PILPPTNVGSNT[Aze]-NH2 (disulfide 2-7 (inferred)) [PD060]
Challenge: # query: argmin of EC50, CRE-luciferase assay over a and b Reply with the label of the item you choose.
Response given: a
(a: 0.031 nM, b: 0.246 nM)

I = RCNTATCATQRLA[Dab]FLRHSSNNLK([γGlu-C20 diacid])PILPPTNVGSNTP-NH2 (disulfide 2-7 (inferred)) [PD044]
II = {C20 diacid-AEEA-AEEA-Inp′}-KCNTATCATQRLADFLRHSSNNLKPILPPTNVGSNTP-NH2 (disulfide 2-7 (inferred)) [PD192]
III = RCNTATCATQRLAEFLRHSSNNK([γGlu-C20 diacid])GPILPPTNVGSNTP-NH2 (disulfide 2-7 (inferred)) [PD008]
IV = {C20 diacid-γGlu}-KCNTATCATQRLADFLRHSSNNL[Orn]PILPPTNVGSNTP-NH2 (disulfide 2-7 (inferred)) [PD170]
V = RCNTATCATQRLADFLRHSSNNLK([γGlu-C18 diacid])PILPPTNVGSNT[Hyp]-NH2 (disulfide 2-7 (inferred)) [PD107]
Challenge: Ordering criterion: EC50, CRE-luciferase assay; begin with the maximum. Respond with an ordered listing of the labels, as requested.
Response given: I, III, II, IV, V
